Quick list: Kd per entry.
Molecular target: feline FcRn complex (FcRn-α subunit and β-microglobulin), biotin labeled (feline)
Assay: SPR, pH 6
Please give a number only; it is taken to be in nM.

[ask] Identify the reported Kd for the following entry. feline IgG1a S252V (antibody, part only; not given: Variable domains, not shown: another chain or arm of the molecule) constant: ASTTAPSVFPLAPSCGTTSGATVALACLVLGYFPEPVTVSWNSGALTSGVHTFPAVLQASGLYSLSSMVTVPSSRWLSDTFTCNVAHPPSNTKVDKTVRKTDHPPGPKPCDCPKCPPPEMLGGPSIFIFPPKPKDTLVISRTPEVTCLVVDLGPDDSDVQITWFVDNTQVYTAKTSPREEQFNSTYRVVSVLPILHQDWLKGKEFKCKVNSKSLPSPIERTISKAKGQPHEPQVYVLPPAQEELSRNKVSVTCLIKSFHPPDIAVEWEITGQPEPENNYRTTPPQLDSDGTYFVYSKLSVDRSHWQRGNTYTCSVSHEALHSHHTQKSLTQSPGK
[reply] 4470

[ask] Identify the reported Kd for the following entry. feline IgG1a S252H/S434Y (antibody, part only; not given: Variable domains, not shown: another chain or arm of the molecule) constant: ASTTAPSVFPLAPSCGTTSGATVALACLVLGYFPEPVTVSWNSGALTSGVHTFPAVLQASGLYSLSSMVTVPSSRWLSDTFTCNVAHPPSNTKVDKTVRKTDHPPGPKPCDCPKCPPPEMLGGPSIFIFPPKPKDTLHISRTPEVTCLVVDLGPDDSDVQITWFVDNTQVYTAKTSPREEQFNSTYRVVSVLPILHQDWLKGKEFKCKVNSKSLPSPIERTISKAKGQPHEPQVYVLPPAQEELSRNKVSVTCLIKSFHPPDIAVEWEITGQPEPENNYRTTPPQLDSDGTYFVYSKLSVDRSHWQRGNTYTCSVSHEALHYHHTQKSLTQSPGK
[reply] 0.14
